Test system: TO-3-N3-2 (biotin conjugate)
method notes: pull-down binding Z-score (relative to library population); higher = stronger binding
assay setup: RNA library: Library-2
Assign class by pull-down binding Z-score: not lower than -0.2 means fulfilled; lower than -0.2 means not fulfilled.

See these solved cases before continuing.
sequence_input="UUUGCCAUUAAAAGUAAUGGUAAA [hsa-mir-548x-2]" group="not fulfilled"
sequence_input=GGUUUAACUUCUAUUAAAUGGGCAGAUAACAACUGUUAUCUUGCCACUGCAUUGUUAACACUCCAACAAAUAGAGUUGAAGUUUAAUCC group="not fulfilled"
sequence_input="CUCUGUAGUUUUCUUAUAGUG [hsa-mir-644a]" group="not fulfilled"
sequence_input="CCUUAGCACUAGCAGGAGG [hsa-mir-612]" group="not fulfilled"
sequence_input="CCAUUUACUUGAACCUUUAGGAGUGA [hsa-mir-489]" group=fulfilled

Exam item: hey, is pull-down binding Z-score for this one >= -0.2? AAGGUAAAACCAACAGUGGUUGUUAAUGCAGCCAAUGUUUACCUU [DMSMaPseq_invitro_SARS-CoV-2_Motif_60]
Marked response: not fulfilled

Exam item: Textbook exercise: given the entry GAGCUGGGUGGGGUGCCAAGCCU [hsa-mir-6819] , state whether its pull-down binding Z-score is greater than or equal to -0.2.
Marked response: fulfilled

Exam item: Could you tell me if the measured pull-down binding Z-score of `GGUUAUAAGAAACC` reaches -0.2 or more?
Marked response: not fulfilled

Exam item: Does the sequence GUCUUUCCAGGGGC [IAV_invivo_NP_5_Motif_23+IAV_invivo_NP_5_Motif_23] have recorded pull-down binding Z-score that is -0.2 or more?
Marked response: not fulfilled

Exam item: Decide: is the reported value of pull-down binding Z-score for UGAUCAUUAUAUGUAUGAUGAGAUCAU [hsa-mir-4528] equal to or greater than -0.2?
Marked response: fulfilled

Exam item: Textbook exercise: given the entry GACCCCCAUGCACCCCUGUGGGCCCCUGGCAUC [hsa-mir-1257] , state whether its pull-down binding Z-score is greater than or equal to -0.2.
Marked response: fulfilled

Exam item: Is pull-down binding Z-score at least -0.2? Consider GUGAGCUCAGCUCCCUGCCUCAC [hsa-mir-3622b]
Marked response: fulfilled

Exam item: Item `GCAAAUUGCACAAUUUGC` with pull-down binding Z-score of -0.2 or above?
Marked response: fulfilled

Exam item: Dear colleague, could you confirm whether GUUAGACCUGGCCCUCUGUCUAAU [hsa-mir-429] has pull-down binding Z-score at or above -0.2?
Marked response: fulfilled

Exam item: Determine whether measured pull-down binding Z-score meets or exceeds -0.2 for GUGGAGGGUGGUGCCGCCGGGGCCGGGCGCUGUUUCAGCUCGCUUCUCCCCCCAC [hsa-mir-1224]
Marked response: fulfilled

Exam item: decide whether the reported pull-down binding Z-score for UUUUCAUGACAACCCUAUAUGGGAAAAUGUUGUGAAAA [hsa-mir-3646] is at least -0.2.
Marked response: not fulfilled

Exam item: Does the reported pull-down binding Z-score for GGUGCUCCCAAGAGGGAAGCU [IAV_invivo_NP_5_Motif_18+IAV_invivo_NP_5_Motif_18] fall at or above the -0.2 mark?
Marked response: fulfilled

###

Tested on: TO-N3-2 (biotin conjugate)
method notes: pull-down binding Z-score (relative to library population); higher = stronger binding
assay setup: RNA library: Library-2
measured endpoint: pull-down binding Z-score

sequence_input="AAGAGGAGGUGGUUGUUUUCCUCCUCUU [hsa-mir-627]" experimental_result=1.15

Consider ACCACCCAGGCCUUAUGGCUUCAUA [hsa-mir-7974] . Its measured pull-down binding Z-score is 0.0927

// GCUGCACAAAAAGC [IAV_invivo_NP_5_Motif_13+IAV_invivo_NP_5_Motif_13] : pull-down binding Z-score value = -0.23

`GUUAAAAUGUUUGAUGCUUACGUUAAUACGUUUUCAUCAACUUUUAAC` has a reported pull-down binding Z-score of -1.35

Per the records, this sequence ( GAGAGUGUUCAGACAUUCUU [SHAPE_invivo_SARS-CoV-2_Motif_44] ) has pull-down binding Z-score equal to -0.51

Memo: GGCCUGGGAUUCCUGCCUUCUAGGUC [hsa-mir-8078] , reported pull-down binding Z-score: 0.307

Measured pull-down binding Z-score of UGGUAUCCUGACCG [hsa-mir-1973] : 0.287

Sample CAUGUGCUGAGUUCGUGCCAUAUG [hsa-mir-654] ; pull-down binding Z-score observed: 0.41

Lab note: measured pull-down binding Z-score of AACGGGGCGGGCCCUGGGCGGGGUAA [G4_2A2_VEGF-Pu22-mt2] was 5.33

Just so you know, measured pull-down binding Z-score for GAGAAACUUGAGGUCUCUGGGAGUUGCUUAAACCAGUUGACCGUAACCUGGCCAGAGAAUUCUGAUAGUGUC [hsa-mir-6740] came out at 1.32

###

Tested on: G-clamp-N3 (biotin conjugate)
method notes: pull-down binding Z-score (relative to library population); higher = stronger binding
assay setup: RNA library: Library-1 (pre-miRNA loops + repeats)
measured endpoint: pull-down binding Z-score
Response field accepts a number only; no unit should be typed.

// solved cases for pull-down binding Z-score follow
sequence_input="AGCAUGCACUUAAUGUGGGUGUAUGU [hsa-mir-668]" experimental_result=0.305
sequence_input="UUGUCUCCUCAAGUUGCGACGAGACAG [hsa-mir-4645]" experimental_result=-1.13
sequence_input="GCAUCCAGACAGCGGGCGAAUGC [hsa-mir-6836]" experimental_result=0.0557

// switching to the query sequence
Noted for GUCUGCCAAGGUUUUGGCAGAC [hsa-mir-3913-2] : its pull-down binding Z-score reads 0.558

###

Test system: TO-3-N3 (biotin conjugate)
method notes: pull-down binding Z-score (relative to library population); higher = stronger binding
assay setup: RNA library: Library-2
In this section we review reported pull-down binding Z-score values for a set of sequences.
Please give the numeric answer without any surrounding text.

Worked examples follow.
sequence_input="CAGUACUGGUCUUAGACUG [hsa-mir-554]" measured_endpoint="pull-down binding Z-score" experimental_result=0.477
sequence_input="UGGGAGGUAAGAGCUCUUCACCCUUCA [hsa-mir-197]" measured_endpoint="pull-down binding Z-score" experimental_result=-0.46

API: the following record is the query input.
For record UUAAGGUGUUUACAACAGUAGACAACAUUAA [DMSMaPseq_invitro_SARS-CoV-2_Motif_93] the listed pull-down binding Z-score is -1.01

###

Test system: TO-3-N3-2 (biotin conjugate)
method notes: pull-down binding Z-score (relative to library population); higher = stronger binding
assay setup: RNA library: Library-2
Please mark class 1 if the recorded pull-down binding Z-score is equal to or greater than -0.3, and class 0 if it falls below.

sequence_input=AUACCACUUAUGUACAAAGGACUUCCUUGGAAUGUAGUGCGUAU group="class 0"
sequence_input="AGAAACCUACUUAUUACAUAGUUUACAUAAGAAGCGUGAU [hsa-mir-1322]" group="class 1"
sequence_input="AAGCAGGGUUGGGCCUGGUU [hsa-mir-7641-1]" group="class 1"

Exam item: // inclusive: pull-down binding Z-score at least -0.3? input: UAUUUUGUUAUUCUGGUCACAGAAUGACCUAGUA [hsa-mir-630]
Marked response: class 1

###

System: TO-3-N3-2 (biotin conjugate)
method notes: pull-down binding Z-score (relative to library population); higher = stronger binding
assay setup: RNA library: Library-2
Is pull-down binding Z-score at least -0.4? Then fulfilled. If not, not fulfilled.

Some entries whose results are on file:
sequence_input="AUUGUUGCCUCUGCAUGUUACAAU [hsa-mir-8066]" group="not fulfilled"
sequence_input="GGACAGGGAUUCUUUUCACUGUU [hsa-mir-599]" group=fulfilled
sequence_input="CUGUCCUGGACUGGGGUCAGACUGUGCCCCGAGGAGAAGCAG [hsa-mir-922]" group=fulfilled
sequence_input=GACAUGUUCCUCGGAACUUGUC group="not fulfilled"
sequence_input="UGUGGCCUGGGGGUUGAGGACCCCUGCUCUA [hsa-mir-645]" group=fulfilled

Exam item: Quick check, pull-down binding Z-score >= -0.4? CUGGUCCAUGCUCAUACCCAAGCAGAAAGUGGCAGGCCCUCUUUGUAUCAGAAUGGACCAG [IAV_invivo_NS1_NEP_8_Motif_8+IAV_invivo_NS1_NEP_8_Motif_8]
Marked response: fulfilled

Exam item: Identify whether the reported pull-down binding Z-score of the following sequence is -0.4 or greater: CUGUCUGUUGUCUAAGAAAAGAUCG [hsa-mir-517c_517b]
Marked response: fulfilled

Exam item: Determine whether measured pull-down binding Z-score meets or exceeds -0.4 for GUGUUUGUGACAUAAUUUGU [hsa-mir-325]
Marked response: fulfilled

Exam item: Quick check: does AAAUAAGUACGAUACUUACCUG [U1snRNP5ss-3] have pull-down binding Z-score greater than or equal to -0.4?
Marked response: fulfilled

Exam item: Is it the case that UCAUUUAUGUGAACUAAAAUAUAAAUUU [hsa-mir-513a-2_513a-1] has pull-down binding Z-score reaching or exceeding -0.4?
Marked response: fulfilled

Exam item: Does the reported pull-down binding Z-score for `AGUCUUGUAGUGCGUUGUUCGUUCUAUGAAGACU` fall at or above the -0.4 mark?
Marked response: not fulfilled

Exam item: Is reported pull-down binding Z-score greater than or equal to -0.4 here: GGAGAGUGUGGACACUUAUGAAUGUCUUGACACUCGUU [SHAPE_invitro_SARS-CoV-2_Motif_211]
Marked response: fulfilled

Exam item: Assess whether reported pull-down binding Z-score for `AAUUGAUUCUUACUUUGUAGUUAAGAGACACACUUUCUCUAACUACCAACAUGAAGAAACAAUU` sits at -0.4 or higher.
Marked response: fulfilled

Exam item: Does the sequence `CUUAUGUUGGUUGCCAUAACAAGUGUGCCUAUUGGGUUCCACGUGCUAGCGCUAACAUAGG` have recorded pull-down binding Z-score that is -0.4 or more?
Marked response: not fulfilled

Exam item: # bool: pull-down binding Z-score of AGAUCACUUUUCUGCACUGGACAGUGAUCU [hsa-mir-3686] >= -0.4
Marked response: not fulfilled

Exam item: Has UUUACUUUUGGCCUCAAGUCAUUGCAGUAAA [hsa-mir-4796] a recorded pull-down binding Z-score greater than or equal to -0.4?
Marked response: not fulfilled

Exam item: Is the recorded value of pull-down binding Z-score equal to or greater than -0.4 for this sequence? UGGCUGUAGGGCAGCAGUCA [hsa-mir-8079]
Marked response: fulfilled

Exam item: Could you verify whether the entry AAAUCCGUGUUUGGACGCUUCUGGUA [hsa-mir-3936] shows pull-down binding Z-score of no less than -0.4?
Marked response: fulfilled

Exam item: In plain terms: is recorded pull-down binding Z-score at least -0.4 for GUGAUGUGAGGAGCAACAGGCACCCUCCU [hsa-mir-6792] ?
Marked response: fulfilled

Exam item: Would you say AGUGAUGGAACU [DMSMaPseq_invitro_SARS-CoV-2_Motif_229] shows pull-down binding Z-score at minimum -0.4?
Marked response: fulfilled

Exam item: Decide: pull-down binding Z-score of GUGGAAUGCAAAGUCCCAC [hsa-mir-5698] >= -0.4?
Marked response: fulfilled
